Assay: self-splicing fitness, log relative to wild type (ln ratio); higher = more splicing; Tetrahymena group I intron in knt gene, E. coli kanamycin selection, DiMSum; sequences stand for … in CUCUCU…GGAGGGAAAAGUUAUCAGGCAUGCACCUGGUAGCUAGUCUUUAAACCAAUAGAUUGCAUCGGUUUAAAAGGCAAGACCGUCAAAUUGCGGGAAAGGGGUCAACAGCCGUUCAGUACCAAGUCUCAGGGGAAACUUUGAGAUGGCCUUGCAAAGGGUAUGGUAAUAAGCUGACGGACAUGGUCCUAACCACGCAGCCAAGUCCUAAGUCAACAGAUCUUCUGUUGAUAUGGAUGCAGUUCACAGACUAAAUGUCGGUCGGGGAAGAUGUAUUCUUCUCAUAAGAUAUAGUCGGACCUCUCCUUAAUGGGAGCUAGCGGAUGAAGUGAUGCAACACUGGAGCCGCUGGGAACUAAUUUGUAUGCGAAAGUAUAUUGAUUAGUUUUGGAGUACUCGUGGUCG;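 also: selection with 25 µg/mL kanamycin versus none on LB agar overnight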
Conditions: 37 °C
Decide by self-splicing fitness (ln): equal to or exceeding -1 means Fulfilled, less means Not fulfilled.

>  <sequenceString>
GUUGAGCAAUAUUACGGUUC

>  <discreteLabel>
Not fulfilled

$$$$
>  <sequenceString>
UUAUAGCAAUAUUACGCGGA

>  <discreteLabel>
Fulfilled

$$$$

Q: Hi, just wondering whether AUGCAGCAAUAUUACGUUAG shows self-splicing fitness (ln) of -1 or higher.
Ans: Not fulfilled

Q: Entry to check: AAAAAGCAAUAUUACGCCCA
Ans: Fulfilled

Q: Entry to check: CAAUAGCAAUAUUACGCAAU
Ans: Not fulfilled

* * *

Assay: self-splicing fitness, log relative to wild type (ln ratio); higher = more splicing; Tetrahymena group I intron in knt gene, E. coli kanamycin selection, DiMSum; sequences stand for … in CUCUCU…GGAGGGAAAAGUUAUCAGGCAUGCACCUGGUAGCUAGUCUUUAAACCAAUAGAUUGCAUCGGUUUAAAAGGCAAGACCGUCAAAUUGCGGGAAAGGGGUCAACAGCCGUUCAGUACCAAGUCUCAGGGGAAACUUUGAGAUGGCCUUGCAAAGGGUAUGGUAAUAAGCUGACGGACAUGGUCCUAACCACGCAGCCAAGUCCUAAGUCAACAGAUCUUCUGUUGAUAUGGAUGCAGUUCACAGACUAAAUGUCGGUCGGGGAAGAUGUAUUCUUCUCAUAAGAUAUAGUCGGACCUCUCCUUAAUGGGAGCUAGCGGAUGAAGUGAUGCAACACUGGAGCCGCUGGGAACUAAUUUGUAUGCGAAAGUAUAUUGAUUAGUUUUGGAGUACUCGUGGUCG
Conditions: 37 °C
measure: self-splicing fitness (ln)
Just the number, please, no unit after it.

>  <sequenceString>
AUAAAGCAAUAUUACGAAUG

>  <measure>
self-splicing fitness (ln)

>  <testResult>
-0.422

$$$$

Q: Query (sequence): GAAGAGCAAUAUUACGGAGU ; field requested: self-splicing fitness (ln)
Ans: -2.47

Q: Entry to check: UUGAAGCAAUAUUACGCACU
Ans: 0.362

Q: Entry to check: AACGAGCAAUAUUACGCAUG
Ans: -2.76

* * *

Assay: self-splicing fitness, log relative to wild type (ln ratio); higher = more splicing; Tetrahymena group I intron in knt gene, E. coli kanamycin selection, DiMSum; sequences stand for … in CUCUCU…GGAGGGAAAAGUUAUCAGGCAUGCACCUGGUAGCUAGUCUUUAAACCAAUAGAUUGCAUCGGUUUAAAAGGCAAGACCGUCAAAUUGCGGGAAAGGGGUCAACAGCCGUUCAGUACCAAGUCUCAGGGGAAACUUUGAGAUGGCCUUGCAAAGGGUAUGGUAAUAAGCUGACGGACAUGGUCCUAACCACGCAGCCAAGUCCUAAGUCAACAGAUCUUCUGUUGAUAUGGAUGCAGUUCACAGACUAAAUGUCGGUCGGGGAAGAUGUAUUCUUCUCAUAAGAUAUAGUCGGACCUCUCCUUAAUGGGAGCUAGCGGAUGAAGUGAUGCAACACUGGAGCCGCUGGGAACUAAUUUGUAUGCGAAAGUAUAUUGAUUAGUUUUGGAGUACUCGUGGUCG
Details: 30 °C
Listed here: items and their measured self-splicing fitness (ln).
Just the number, please, no unit after it.

For orientation, consider the following solved cases.
>  <sequenceString>
UACGAGCAAUAUUACGCCAG

>  <measure>
self-splicing fitness (ln)

>  <testResult>
-3.79

$$$$
>  <sequenceString>
GGCCAGCAAUAUUACGGGGU

>  <measure>
self-splicing fitness (ln)

>  <testResult>
-3.68

$$$$
>  <sequenceString>
AAUGAGCAAUAUUACGCUAU

>  <measure>
self-splicing fitness (ln)

>  <testResult>
-2.84

$$$$
>  <sequenceString>
UCGCAGCAAUAUUACGUGAA

>  <measure>
self-splicing fitness (ln)

>  <testResult>
-1.32

$$$$
>  <sequenceString>
GUAGAGCAAUAUUACGGCCC

>  <measure>
self-splicing fitness (ln)

>  <testResult>
-1.36

$$$$
>  <sequenceString>
AAAUAGCAAUAUUACGUAAA

>  <measure>
self-splicing fitness (ln)

>  <testResult>
-1.61

$$$$

Q: Query (sequence): AACCAGCAAUAUUACGAUGU ; field requested: self-splicing fitness (ln)
Ans: -0.353

Q: Entry to check: GCACAGCAAUAUUACGAGAC
Ans: -2.51

Q: Entry to check: AACUAGCAAUAUUACGACAU
Ans: -0.187

Q: Entry to check: UCAGAGCAAUAUUACGGGGA
Ans: -1.48

Q: Entry to check: UGAAAGCAAUAUUACGCCGG
Ans: -0.876

Q: Entry to check: AGGUAGCAAUAUUACGCCCG
Ans: -0.077

Q: Entry to check: AGGAAGCAAUAUUACGCCCA
Ans: -0.363

Q: Entry to check: CCGUAGCAAUAUUACGAAAU
Ans: -3.61

Q: Entry to check: GGCUAGCAAUAUUACGGUGU
Ans: -0.416

Q: Entry to check: UAACAGCAAUAUUACGAGGG
Ans: -3.58

Q: Entry to check: CACGAGCAAUAUUACGCAUC
Ans: -1.74

Q: Entry to check: CGAUAGCAAUAUUACGGCCU
Ans: -1.67

Q: Entry to check: GAACAGCAAUAUUACGCGUG
Ans: -0.931

* * *

Test: self-splicing fitness, log relative to wild type (ln ratio); higher = more splicing; Tetrahymena group I intron in knt gene, E. coli kanamycin selection, DiMSum; sequences stand for … in CUCUCU…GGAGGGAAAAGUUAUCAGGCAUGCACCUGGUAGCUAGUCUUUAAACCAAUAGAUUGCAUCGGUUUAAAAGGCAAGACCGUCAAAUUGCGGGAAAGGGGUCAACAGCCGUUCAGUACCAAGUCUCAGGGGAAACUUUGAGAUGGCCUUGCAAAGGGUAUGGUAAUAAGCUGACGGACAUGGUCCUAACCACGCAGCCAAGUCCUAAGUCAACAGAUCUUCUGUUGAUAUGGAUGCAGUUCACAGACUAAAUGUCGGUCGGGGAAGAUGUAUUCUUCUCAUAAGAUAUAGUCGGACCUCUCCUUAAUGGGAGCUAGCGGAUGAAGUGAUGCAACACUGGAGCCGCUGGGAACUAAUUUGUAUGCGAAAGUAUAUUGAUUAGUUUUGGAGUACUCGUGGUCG
Details: 30 °C
Decide by self-splicing fitness (ln): equal to or exceeding -2 means 1, less means -1.

>  <sequenceString>
UGCAAGCAAUAUUACGAUGA

>  <discreteLabel>
1

$$$$
>  <sequenceString>
AACCAGCAAUAUUACGGUUA

>  <discreteLabel>
-1

$$$$
>  <sequenceString>
GAUUAGCAAUAUUACGCAAU

>  <discreteLabel>
-1

$$$$

Q: Hi, just wondering whether CAAUAGCAAUAUUACGUUAA shows self-splicing fitness (ln) of -2 or higher.
Ans: -1

Q: Entry to check: UAGGAGCAAUAUUACGUCGU
Ans: 1

* * *

Experiment: self-splicing fitness, log relative to wild type (ln ratio); higher = more splicing; Tetrahymena group I intron in knt gene, E. coli kanamycin selection, DiMSum; sequences stand for … in CUCUCU…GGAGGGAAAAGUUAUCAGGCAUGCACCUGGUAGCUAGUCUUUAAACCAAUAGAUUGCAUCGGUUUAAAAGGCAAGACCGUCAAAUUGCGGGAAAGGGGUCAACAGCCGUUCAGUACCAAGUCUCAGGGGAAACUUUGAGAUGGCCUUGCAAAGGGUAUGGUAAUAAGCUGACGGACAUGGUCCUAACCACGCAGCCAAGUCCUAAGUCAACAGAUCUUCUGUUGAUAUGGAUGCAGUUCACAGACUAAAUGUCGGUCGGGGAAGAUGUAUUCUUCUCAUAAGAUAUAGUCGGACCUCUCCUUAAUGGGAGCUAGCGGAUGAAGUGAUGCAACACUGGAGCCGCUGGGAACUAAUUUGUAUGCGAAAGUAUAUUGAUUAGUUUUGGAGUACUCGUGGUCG
Conditions: 37 °C
measure: self-splicing fitness (ln)
Just the number, please, no unit after it.

>  <sequenceString>
ACGAAGCAAUAUUACGAUGC

>  <testResult>
-2.01

$$$$
>  <sequenceString>
CGGGAGCAAUAUUACGUUUU

>  <testResult>
-1.53

$$$$
>  <sequenceString>
ACGGAGCAAUAUUACGUUCG

>  <testResult>
-0.333

$$$$

Q: Query (sequence): UAGGAGCAAUAUUACGCGCG ; field requested: self-splicing fitness (ln)
Ans: -1.29

Q: Entry to check: UAGGAGCAAUAUUACGGACA
Ans: -0.442

Q: Entry to check: UGAAAGCAAUAUUACGGGGC
Ans: -2.73

Q: Entry to check: GCCAAGCAAUAUUACGUCAA
Ans: -1.97

The measured values listed here are drawn from the supplement of paper PMC7877785.
